# target.of.assay: T1, MBP-tagged human DNMT1 residues 351-1600, M718A/H719A/K723A/K724A/K725A/Q726A (Mut^linker) (human, UniProt P26358 351-1600, M718A | H719A | K723A | K724A | K725A | Q726A)
# T1 construct: numbering on isoform 1 of 1616 amino acids; also called MBP-Mut^linker; source: E. coli BL21(DE3) RIL, purified
# assay.comment: ITC
readout.label: pKd
When answering, recall that pKd equals minus log10 of the concentration in mol/L, and write that number alone.

**Query** Any idea what pKd was measured for GAKRHRKVLRDNY (trimethyl-lysine at K20, histone H4, residues 14-25; additional C-terminal tyrosine for spectroscopic quantification; also called H4K20me3 peptide; source: synthetic peptide (LifeTein)) [H4(14-25)K20me3 peptide] ?
**Result** 3.91
